Target: T1, RBFOX1 RRM RbFoxmut (Fox-RRM*) (Homo sapiens, UniProt Q9NWB1 109-208, R118D;E147R;N151S;E152T)
T1 sequence: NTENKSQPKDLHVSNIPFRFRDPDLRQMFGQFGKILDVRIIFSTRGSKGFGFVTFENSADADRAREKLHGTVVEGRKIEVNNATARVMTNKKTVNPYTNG
Experiment: EMSA; HiTS-Eq, 1 nM pool, 10 min; buffer printed only for the single-RNA assays: 10 mM Tris pH 7.5, 150 mM NaCl, 3.4 mM EDTA, 0.001% NP-40, 30 C
Conditions: tags: His6 N-terminal (pET28a); label: 5' 32P
Whole data set: some 16,000 sequences, median “ka relative to ugcaugu” near 0.096, cut for the highest 2% near 0.35. The sample as a whole holds a higher share of the highest values than the screen did.
experimentalEndpoint: binding signal

Problem: What value of measured binding signal is listed for UGUAGUG (DNA:RNA) RNA: GGGAGACCGGAAUUCAGAUUGUCCUGUAGUGUUAAAUCCCGUCGUAGCCACCA DNA 1: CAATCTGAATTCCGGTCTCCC DNA 2: TGGTGGCTACGACGGGATT ?
Result: 0.682 KA relative to UGCAUGU
